# tested-system: UniProt:Q99572
# experiment-description: Human P2X7 functional assay (Ca2+ influx, Fluo-4, FDSS)
# condition-description: antagonistic activity with respect to the human P2X7 receptor; BzATP final concentration 80 microM
Known IC50 of a selection of molecules

Please review the entries below; each comes with its answer.
INSERT INTO measurements (structure_smiles, readout, measurement) VALUES
  ('O=C(N[C@H]1CCc2ccccc21)[C@]1(F)CC[C@H](O)c2ncccc21', 'IC50', '1000 to 3000 nM'),
  ('O=C(NCc1ccc(Cl)cc1Cl)[C@@H]1CC[C@@H](O)c2ncccc21', 'IC50', '50 to 100 nM');

Consider now this further molecule.
# IC50 lookup, item "C[C@]1(O)CC[C@@](F)(C(=O)NCc2c(F)cc(Cl)cc2F)c2cccnc21"
< 50 nM

----------
Known IC50 of a selection of compounds
# tested-system: human P2X7 (Homo sapiens (Human), UniProt Q99572)
# Sequence (Q99572 whole entry): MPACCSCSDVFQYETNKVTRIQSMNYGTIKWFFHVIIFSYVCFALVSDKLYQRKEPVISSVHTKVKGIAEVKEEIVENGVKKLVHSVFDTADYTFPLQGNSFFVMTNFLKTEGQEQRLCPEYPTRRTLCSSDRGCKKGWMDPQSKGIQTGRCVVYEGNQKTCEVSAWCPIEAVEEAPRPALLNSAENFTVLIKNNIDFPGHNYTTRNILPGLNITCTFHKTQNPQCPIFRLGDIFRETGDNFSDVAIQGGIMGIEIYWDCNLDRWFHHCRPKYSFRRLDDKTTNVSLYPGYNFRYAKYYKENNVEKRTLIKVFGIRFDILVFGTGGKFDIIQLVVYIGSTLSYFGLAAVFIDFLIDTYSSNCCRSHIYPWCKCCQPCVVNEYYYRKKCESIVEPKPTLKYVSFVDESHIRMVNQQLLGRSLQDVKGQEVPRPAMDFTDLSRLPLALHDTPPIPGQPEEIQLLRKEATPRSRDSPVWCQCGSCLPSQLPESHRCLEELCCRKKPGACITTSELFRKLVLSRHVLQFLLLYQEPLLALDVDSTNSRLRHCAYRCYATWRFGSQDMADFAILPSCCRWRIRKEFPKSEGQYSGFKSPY
# experiment-description: Human P2X7 functional assay (Ca2+ influx, Fluo-4, FDSS)
# condition-description: antagonistic activity with respect to the human P2X7 receptor; BzATP final concentration 80 microM

Please review the entries below; each comes with its answer.
INSERT INTO assay_data (compound, tested_system, measurement) VALUES
  ('Cc1ccc(CNC(=O)[C@@]2(F)CC[C@@H](O)c3ncccc32)c(Cl)c1 [Example 166]', 'human P2X7 (Homo sapiens (Human), UniProt Q99572)', '101 to 300 nM'),
  ('O=C(NCc1ccc(Cl)cc1Cl)[C@]1(F)CC[C@](O)(CO)c2ncccc21 [Example 305]', 'human P2X7 (Homo sapiens (Human), UniProt Q99572)', '< 50 nM'),
  ('O=C(NCc1cc(F)c(F)cc1Cl)[C@@]1(F)CC[C@@H](O)c2ncccc21 [Example 162]', 'human P2X7 (Homo sapiens (Human), UniProt Q99572)', '101 to 300 nM');

# IC50 lookup, item O=C(NCc1c(F)ccc(F)c1Cl)[C@]1(F)CC[C@H](O)c2ncccc21 [Example 170]
< 50 nM

# IC50 lookup, item O=C(NCc1ccc(Cl)c(F)c1Cl)[C@]1(F)CC[C@@](O)(CO)c2ncccc21 [Example 319]
< 50 nM

# IC50 lookup, item O=C(NCc1ccc(F)c(F)c1Cl)[C@@H]1CC[C@H](O)c2ncccc21 [Example 82]
< 50 nM

# IC50 lookup, item CC(C)(C)CCNC(=O)[C@]1(F)CC[C@H](O)c2ncccc21 [Example 227]
1000 to 3000 nM

# IC50 lookup, item Cc1cc(Cl)cc(Cl)c1CNC(=O)C1CCC(CC(=O)O)c2ncccc21 (centres unmarked) [Example 30]
< 50 nM

# IC50 lookup, item CS(=O)(=O)C[C@]1(O)CC[C@@](F)(C(=O)NCc2ccc(F)cc2Cl)c2cccnc21 [Example 299]
101 to 300 nM

# IC50 lookup, item O=C(NCc1ccc(Cl)cc1Cl)[C@@]1(F)CC[C@@](O)(CO)c2ncccc21 [Example 303]
1000 to 3000 nM

# IC50 lookup, item C[C@H](NC(=O)[C@]1(F)CC[C@H](O)c2ncccc21)c1ccc(F)cc1Cl [Example 239]
101 to 300 nM

----------
# tested-system: human P2X7 (Homo sapiens (Human))
# experiment-description: Human P2X7 functional assay (Ca2+ influx, Fluo-4, FDSS)
# Type: cell-based
# condition-description: antagonistic activity with respect to the human P2X7 receptor; BzATP final concentration 80 microM
pIC50: −log10 of the molar value.
Known pIC50 of a selection of compounds

Please review the entries below; each comes with its answer.
INSERT INTO assay_data (structure_smiles, measurement) VALUES
  ('C[C@@H](NC(=O)[C@]1(F)CC[C@@](O)(CO)c2ncccc21)c1ccc(F)cc1Cl', '> 7.30'),
  ('O=C(NCc1ccc(F)cc1F)[C@]1(F)CC[C@H](O)c2ncccc21', '> 7.30'),
  ('O=C1CC[C@@](F)(C(=O)NCc2ccc(F)c(F)c2F)c2cccnc21', '6.00 to 6.52');

Consider now this further compound.
# pIC50 lookup, item "N#CC[C@@]1(O)CC[C@@](F)(C(=O)NCc2ccc(F)cc2Cl)c2cccnc21"
> 7.30

Taken from patent US11077100B2.
